Every entry's value here was drawn from patent US20220323561A1.

Biological target: T1, HLA-A*0201 molecule expressed on human T2 cells (human)
T1 construct: also called HLA-A2
Assay: T2 cells (HLA-A*0201), peptide at 0.1 µM, anti-HLA-A2 flow cytometry
Procedure: T2 cells (5.104 cells per well) are incubated with decreasing concentrations of peptides from 100 μM to 0.1 μM (4 points: 100 μM, 10 μM, 1 μM, 0.1 μM) in serum-free medium (TexMacs) supplemented with […] of β2 Microglobulin at 37° C. for 16 hours. Cells are then washed two times and marked with the anti-HLA-A2 antibody coupled to PE (clone BB7.2, BD Pharmagen). The relative affinity is then determined as follows: […]
Please provide measured mean relative fluorescence intensity (HIV peptide = 100) for the entries that follow.

Task item: What does the record list as mean relative fluorescence intensity (HIV peptide = 100) for AMNSLSLYI [MS4A1-B4] ?
Reply: 0.5 % of HIV pol 589-597 at 100 µM

Task item: What does the record list as mean relative fluorescence intensity (HIV peptide = 100) for TLAYLIFCL [CD19-H6] ?
Reply: 0 % of HIV pol 589-597 at 100 µM

Task item: What does the record list as mean relative fluorescence intensity (HIV peptide = 100) for YLAYLIFEL [CD19-B6] ?
Reply: 0 % of HIV pol 589-597 at 100 µM

Task item: What does the record list as mean relative fluorescence intensity (HIV peptide = 100) for IALGGLLMI [MS4A1-H1] ?
Reply: 0 % of HIV pol 589-597 at 100 µM

Task item: What does the record list as mean relative fluorescence intensity (HIV peptide = 100) for YILGGLLMV [MS4A1-B12] ?
Reply: 1.2 % of HIV pol 589-597 at 100 µM

Task item: What does the record list as mean relative fluorescence intensity (HIV peptide = 100) for SLVGILHII [CD19-B11] ?
Reply: 0 % of HIV pol 589-597 at 100 µM

Task item: What does the record list as mean relative fluorescence intensity (HIV peptide = 100) for ILPGLLFGL [TNFRSF13C-B31] ?
Reply: 0 % of HIV pol 589-597 at 100 µM

Task item: What does the record list as mean relative fluorescence intensity (HIV peptide = 100) for IMNSLSLFA [MS4A1-H4] ?
Reply: 0 % of HIV pol 589-597 at 100 µM

Task item: What does the record list as mean relative fluorescence intensity (HIV peptide = 100) for YLFLGILSL [MS4A1-B5] ?
Reply: 0 % of HIV pol 589-597 at 100 µM

Task item: What does the record list as mean relative fluorescence intensity (HIV peptide = 100) for SLVGILHLQ [CD19-H1] ?
Reply: 1 % of HIV pol 589-597 at 100 µM

Task item: What does the record list as mean relative fluorescence intensity (HIV peptide = 100) for LMIPAGIYA [MS4A1-H3] ?
Reply: 0 % of HIV pol 589-597 at 100 µM

Task item: What does the record list as mean relative fluorescence intensity (HIV peptide = 100) for GLAFVPLQI [CD37-H1] ?
Reply: 2 % of HIV pol 589-597 at 100 µM

Task item: What does the record list as mean relative fluorescence intensity (HIV peptide = 100) for TLLFLTPML [CD19-B2] ?
Reply: 12 % of HIV pol 589-597 at 100 µM

Task item: What does the record list as mean relative fluorescence intensity (HIV peptide = 100) for ILIPAGIYL [MS4A1-B3] ?
Reply: 1.9 % of HIV pol 589-597 at 100 µM

Task item: What does the record list as mean relative fluorescence intensity (HIV peptide = 100) for PLPGLLFGA [TNFRSF13C-H3] ?
Reply: 0 % of HIV pol 589-597 at 100 µM

Task item: What does the record list as mean relative fluorescence intensity (HIV peptide = 100) for GMAFVPLLL (also called CD37-B11i) [CD37-B11] ?
Reply: 0 % of HIV pol 589-597 at 100 µM

Task item: What does the record list as mean relative fluorescence intensity (HIV peptide = 100) for LQMGGFYLL [CD19-B7] ?
Reply: 6 % of HIV pol 589-597 at 100 µM

Task item: What does the record list as mean relative fluorescence intensity (HIV peptide = 100) for FLAFVPLQL (also called CD37-B1i) [CD37-B1] ?
Reply: 5 % of HIV pol 589-597 at 100 µM

Task item: What does the record list as mean relative fluorescence intensity (HIV peptide = 100) for WVFEHPETL [CD22-H1] ?
Reply: 2 % of HIV pol 589-597 at 100 µM

Task item: What does the record list as mean relative fluorescence intensity (HIV peptide = 100) for LMFGAPALV [TNFRSF13C-B1] ?
Reply: 1 % of HIV pol 589-597 at 100 µM

Task item: What does the record list as mean relative fluorescence intensity (HIV peptide = 100) for YVFEHPELL [CD22-B11] ?
Reply: 6.4 % of HIV pol 589-597 at 100 µM

Task item: What does the record list as mean relative fluorescence intensity (HIV peptide = 100) for FMPGLLFGA [TNFRSF13C-B33] ?
Reply: 0 % of HIV pol 589-597 at 100 µM

Task item: What does the record list as mean relative fluorescence intensity (HIV peptide = 100) for LLFGAPALL (also called TNFRSF13-H1) [TNFRSF13C-H1] ?
Reply: 0 % of HIV pol 589-597 at 100 µM
